FYI, the data here is from patent US20230365537A1.

studyTarget: human recombinant Aurora A (Homo sapiens (Human))
Sequence (O14965 whole entry): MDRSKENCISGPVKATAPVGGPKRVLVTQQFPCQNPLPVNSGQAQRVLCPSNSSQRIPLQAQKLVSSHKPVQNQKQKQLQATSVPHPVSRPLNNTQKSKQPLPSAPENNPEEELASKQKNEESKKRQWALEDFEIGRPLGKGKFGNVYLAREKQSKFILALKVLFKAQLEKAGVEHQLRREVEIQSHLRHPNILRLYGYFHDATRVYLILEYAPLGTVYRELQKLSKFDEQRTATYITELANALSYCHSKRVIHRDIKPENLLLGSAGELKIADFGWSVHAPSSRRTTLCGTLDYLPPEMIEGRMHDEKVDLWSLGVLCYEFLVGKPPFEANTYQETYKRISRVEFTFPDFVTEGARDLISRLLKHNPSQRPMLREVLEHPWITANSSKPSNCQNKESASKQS
protocolNotes: Aurora A Kinase Biochemical Assay (ADP-Glo)
measurementSetup: ratio of Aurora A IC50 to PLK4 IC50 (selectivity)
reportedEndpoint: [Aurora A IC50 (nM)]/[PLK4 IC50 (nM)]

I: CCOc1nc(C(=O)N(C)C)ccc1Nc1n[nH]c2cc([C@@H]3C[C@@]34C(=O)Nc3ccc(OC)cc34)ccc12
II: COc1ccc2c(c1)[C@]1(C[C@H]1c1ccc3c(Nc4ncc(C(=O)N5CCOCC5)cc4OC)n[nH]c3c1)C(=O)N2
From the recorded data, which exceeds the other in [Aurora A IC50 (nM)]/[PLK4 IC50 (nM)]: I or II ? Pick one; state its label. I

---

studyTarget: human recombinant Aurora B (Homo sapiens (Human), UniProt Q96GD4)
Sequence (Q96GD4 whole entry): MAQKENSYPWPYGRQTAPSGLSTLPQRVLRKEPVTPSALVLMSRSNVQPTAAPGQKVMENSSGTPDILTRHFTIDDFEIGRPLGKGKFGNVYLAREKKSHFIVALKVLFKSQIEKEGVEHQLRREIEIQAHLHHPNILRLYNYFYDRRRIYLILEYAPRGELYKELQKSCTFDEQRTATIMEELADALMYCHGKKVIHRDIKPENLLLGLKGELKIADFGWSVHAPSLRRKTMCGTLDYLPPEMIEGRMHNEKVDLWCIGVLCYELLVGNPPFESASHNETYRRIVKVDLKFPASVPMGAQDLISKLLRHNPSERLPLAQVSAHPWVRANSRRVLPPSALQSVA
protocolNotes: Aurora B Kinase Biochemical Assay (ADP-Glo)
measurementSetup: ratio of Aurora B IC50 to PLK4 IC50 (selectivity)
reportedEndpoint: [Aurora B IC50 (nM)]/[PLK4 IC50 (nM)]

Example cases with answers are listed next.
COc1ccc2c(c1)[C@]1(C[C@H]1c1ccc3c(Nc4nc(Cl)nc5ccoc45)n[nH]c3c1)C(=O)N2    76.9329
CCP(=O)(CC)c1ccc(OC)c(Nc2n[nH]c3cc([C@@H]4C[C@@]45C(=O)Nc4ccc(OC)cc45)ccc23)c1    2807.8381
COc1ccc2c(c1)[C@]1(C[C@H]1c1ccc3c(Nc4cc(S(=O)(=O)C(C)C)ccc4OC)n[nH]c3c1)C(=O)N2    15179.1135
COc1ccc2c(c1)[C@]1(C[C@H]1c1ccc3c(Nc4nc(C5CC5)ncc4Cl)n[nH]c3c1)C(=O)N2    483.7370
COc1ccc2c(c1)[C@]1(C[C@H]1c1ccc3c(Nc4nc(C)ncc4Cl)n[nH]c3c1)C(=O)N2    305.5335
COc1ccc2c(c1)[C@]1(C[C@H]1c1ccc3c(Nc4nc(C)ncc4OC)n[nH]c3c1)C(=O)N2    133.9241

A: COc1ccc2c(c1)[C@]1(C[C@H]1c1ccc3c(Nc4cn(C)nc4C)n[nH]c3c1)C(=O)N2
B: COc1ccc2c(c1)[C@]1(C[C@H]1c1ccc3c(Nc4ncc(S(=O)(=O)NC5(C)COC5)cc4OC)n[nH]c3c1)C(=O)N2
From the recorded data, which exceeds the other in [Aurora B IC50 (nM)]/[PLK4 IC50 (nM)]: A or B ? Pick one; state its label. B

A: COc1ccc2c(c1)[C@]1(C[C@H]1c1ccc3c(Nc4ncc(N5CCOCC5)nc4OC)n[nH]c3c1)C(=O)N2
B: COc1ccc2c(c1)[C@]1(C[C@H]1c1ccc3c(Nc4ncnc(N5CC(OC)C5)c4Cl)n[nH]c3c1)C(=O)N2
C: COc1ccc2c(c1)[C@]1(C[C@H]1c1ccc3c(Nc4cc5cccnc5cc4OC)n[nH]c3c1)C(=O)N2
D: COc1ccc2c(c1)[C@]1(C[C@H]1c1ccc3c(Nc4nc(N5CC[C@@H](F)C5)ncc4OC)n[nH]c3c1)C(=O)N2
E: COc1ccc2c(c1)[C@]1(C[C@H]1c1ccc3c(Nc4ncc(CCO)nc4OC)n[nH]c3c1)C(=O)N2
Ascending by [Aurora B IC50 (nM)]/[PLK4 IC50 (nM)], please: list the molecules accordingly. Write the labels out in the order the request specifies. E, A, B, C, D
